All figures here come from patent US12492210B2.

What follows is a collection of pIC50 values obtained with MAPK1(ERK2) enzyme (Homo sapiens, UniProt P28482).
Sequence (P28482 whole entry): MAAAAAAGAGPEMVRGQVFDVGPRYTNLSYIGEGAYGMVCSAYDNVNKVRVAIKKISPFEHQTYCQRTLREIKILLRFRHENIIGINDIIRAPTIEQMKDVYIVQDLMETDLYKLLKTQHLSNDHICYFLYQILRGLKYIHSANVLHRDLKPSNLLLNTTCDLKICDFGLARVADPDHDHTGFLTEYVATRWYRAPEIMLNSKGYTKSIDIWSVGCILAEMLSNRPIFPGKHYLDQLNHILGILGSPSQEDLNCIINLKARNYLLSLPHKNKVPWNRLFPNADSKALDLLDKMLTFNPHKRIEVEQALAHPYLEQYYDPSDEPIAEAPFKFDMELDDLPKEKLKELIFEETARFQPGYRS
pIC50: −log10 of the molar value.

Please review the following examples before continuing.
Cn1nccc1Nc1cc(-c2cc3n(c2)C[C@H](CF)n2c(Cc4ccccc4F)nnc2-3)c(Cl)cn1 8.00 to 8.30
Cc1cnc(NC2CC(F)(F)C2)nc1-c1cc2n(c1)CCCn1c-2nnc1C1(C(F)(F)F)CCC1 ≥ 8.30
Cc1cnc(Nc2ccnn2CC(F)F)nc1-c1cc2n(c1)C[C@H](C)n1c-2nnc1C(F)(F)c1ccccc1F < 8.00
Cc1cnc(Nc2ccnn2C)cc1-c1cc2n(c1)C[C@H](CF)n1c-2nnc1C(F)(F)n1ccccc1=O ≥ 8.30
Cc1cnc(Nc2ccnn2CCO)nc1-c1cc2n(c1)C[C@H](C)n1c-2nnc1C(F)(F)c1ccccc1F 8.00 to 8.30

INPUT: Notebook entry, MAPK1(ERK2) enzyme (Homo sapiens, UniProt P28482) assay: pIC50 of Cc1cnc(Nc2ccnn2C(F)F)cc1-c1cc2n(c1)CCCn1c-2nnc1C1(C(F)(F)F)CCC1 = ?
OUTPUT: ≥ 8.30

INPUT: Given the entry Cc1cnc(Nc2ccnn2C)nc1-c1cc2n(c1)[C@H](C)Cn1c-2nnc1C1(C(F)(F)F)CCC1 , what pIC50 was observed with MAPK1(ERK2) enzyme (Homo sapiens, UniProt P28482)?
OUTPUT: ≥ 8.30

INPUT: Entry Cc1nonc1C(F)(F)c1nnc2n1[C@@H](CF)Cn1cc(-c3cc(Nc4ccnn4C)ncc3Cl)cc1-2 , system MAPK1(ERK2) enzyme (Homo sapiens, UniProt P28482): what pIC50 was measured?
OUTPUT: 8.00 to 8.30

INPUT: Missing value: pIC50, MAPK1(ERK2) enzyme (Homo sapiens, UniProt P28482), entry Cc1c(-c2ccnc(Nc3ccnn3C)n2)cn2c1-c1nnc(C3(C(F)(F)F)CCC3)n1CCC2 . Fill in?
OUTPUT: ≥ 8.30

INPUT: Could you share what pIC50 was measured for Cc1cnc(Nc2ccnn2C)cc1-c1cc2n(c1)CC(C)(C)n1c-2nnc1C(F)(F)C(F)F , tested on MAPK1(ERK2) enzyme (Homo sapiens, UniProt P28482)?
OUTPUT: ≥ 8.30

INPUT: Request body: readout pIC50, system MAPK1(ERK2) enzyme (Homo sapiens, UniProt P28482), query Cn1nccc1Nc1cc(-c2cc3n(c2)C[C@H](C(F)F)n2c-3nnc2C(F)(F)c2ccccc2F)c(Cl)cn1 . Return the value.
OUTPUT: < 8.00

INPUT: Short answer please: pIC50, MAPK1(ERK2) enzyme (Homo sapiens, UniProt P28482), entry Cc1cnc(Nc2ccnn2C)cc1-c1cc2n(c1)CC(F)(F)Cn1c-2nnc1C1(C(F)F)CC(F)(F)C1
OUTPUT: ≥ 8.30

INPUT: Kindly state the measured pIC50 obtained for Cn1nccc1Nc1cc(-c2cc3n(c2)CCCn2c-3nnc2C(F)(F)c2ccccc2Cl)c(Cl)cn1 with MAPK1(ERK2) enzyme (Homo sapiens, UniProt P28482).
OUTPUT: < 8.00

====

Target or system MAPK1(ERK2) enzyme (Homo sapiens, UniProt P28482): recorded IC50 listed per item.

# count of solved cases: 5
compound	reportedResult
Cn1nccc1Nc1cc(-c2cc3n(c2)C[C@H](CF)n2c-3nnc2C(F)(F)C(F)(F)F)c(Cl)cn1 [Compound 114]	≤ 5 nM
Cn1nccc1Nc1cc(-c2cc3n(c2)CCn2c(COc4ccccc4F)nnc2-3)c(Cl)cn1 [Compound 23]	5 to 10 nM
Cn1nccc1Nc1cc(-c2cc3n(c2)C[C@H](CF)n2c-3nnc2C(F)(F)c2ccccc2F)c(F)cn1 [Compound 145]	≤ 5 nM
Cc1cnc(Nc2ccnn2C)cc1-c1cc2n(c1)CCn1c-2nnc1C(F)(F)c1ccccc1Cl [Compound 90]	5 to 10 nM
Cn1nccc1Nc1cc(-c2cc3n(c2)CCCn2c-3nnc2C(O)c2ccccc2)c(Cl)cn1 (stereo not drawn) [Compound 18]	5 to 10 nM

INPUT: Lab request: please report IC50 under test system MAPK1(ERK2) enzyme (Homo sapiens, UniProt P28482) for C[C@H]1Cn2cc(-c3cc(Nc4ccnn4C)ncc3Cl)cc2-c2nnc(C(F)(F)c3ccccc3Cl)n21 [Compound 178]
OUTPUT: > 10 nM

INPUT: Hi! What's the reported IC50 for Cn1nccc1Nc1ncc(Cl)c(-c2cc3n(c2)CCCn2c(COC4(C(F)(F)F)CCC4)nnc2-3)n1 [Compound 213] on MAPK1(ERK2) enzyme (Homo sapiens, UniProt P28482)?
OUTPUT: ≤ 5 nM

INPUT: Fill in the recorded IC50 for this compound, with MAPK1(ERK2) enzyme (Homo sapiens, UniProt P28482) as test system: Cn1nccc1Nc1cc(-c2cc3n(c2)C[C@H](CF)n2c-3nnc2C(F)(F)c2ccccc2Cl)c(F)cn1 [Compound 192]
OUTPUT: > 10 nM

INPUT: Requested read-out IC50, target or system MAPK1(ERK2) enzyme (Homo sapiens, UniProt P28482), entry Cc1cnc(Nc2ccnn2C(F)F)nc1-c1cc2n(c1)C[C@H](C)n1c-2nnc1C(F)(F)c1ccccc1F [Compound 187]
OUTPUT: > 10 nM

INPUT: Notebook: pull reported IC50 for MAPK1(ERK2) enzyme (Homo sapiens, UniProt P28482), entry Cn1nccc1Nc1cc(-c2cc3n(c2)CCCn2c(Cc4c(F)cccc4Cl)nnc2-3)c(Cl)cn1 [Compound 33]
OUTPUT: > 10 nM

INPUT: IC50 of Cc1cnc(Nc2ccnn2C)nc1-c1cn2c(n1)-c1nnc(C(F)(F)c3ccccc3Cl)n1[C@@H](CF)C2 [Compound 225] on MAPK1(ERK2) enzyme (Homo sapiens, UniProt P28482)?
OUTPUT: ≤ 5 nM

====

Record: IC50 reported on MAPK1(ERK2) enzyme (Homo sapiens, UniProt P28482).

Solved cases below.
Cn1nccc1Nc1cc(-c2cc3n(c2)CC(F)(F)Cn2c-3nnc2C2(C(F)F)COC2)c(Cl)cn1 ≤ 5 nM
Cc1cc(Nc2ncc(C)c(-c3cc4n(c3)C[C@H](C)n3c-4nnc3C(F)(F)c3ccccc3F)n2)n(C)n1 > 10 nM
C[C@H]1Cn2cc(-c3ccnc(Nc4ccnn4C)c3)cc2-c2nnc(C(F)(F)c3ccccc3F)n21 ≤ 5 nM
C[C@@H](CO)Nc1cc(-c2cc3n(c2)CCCn2c-3nnc2C2(C(F)(F)F)CCC2)c(Cl)cn1 ≤ 5 nM
Cc1cnc(Nc2ccnn2C)cc1-c1cc2n(c1)C[C@H](C(F)F)n1c-2nnc1C(F)(F)c1ccccc1F > 10 nM
Cn1nccc1Nc1nccc(-c2cn3c(c2Cl)-c2nnc(Cc4ccccc4F)n2CCC3)n1 ≤ 5 nM

Next up:
INPUT: Which value of IC50 has been reported for Cn1nccc1Nc1cc(-c2cc3n(c2)C[C@H](CF)n2c-3nnc2C(F)(F)c2ccnn2C)c(Cl)cn1 in the records?
OUTPUT: ≤ 5 nM

====

- testedTarget: UniProt:P28482
pIC50: −log10 of the molar value.
Listed next: entries and their corresponding pIC50.

Example compounds with recorded pIC50:
Cn1nccc1Nc1cc(-c2cc3n(c2)CCn2c-3nnc2C2(C(F)(F)F)CCC2)c(Cl)cn1 ≥ 8.30
C[C@H]1Cn2cc(-c3nc(Nc4ccnn4C)ncc3F)cc2-c2nnc(C(F)(F)c3ccccc3F)n21 8.00 to 8.30
COc1ccccc1C(F)(F)c1nnc2n1[C@@H](CF)Cn1cc(-c3nc(Nc4ccnn4C)ncc3C)cc1-2 ≥ 8.30
Cn1nccc1Nc1cc(-c2cc3n(c2)CCCCn2c-3nnc2C2(C(F)(F)F)CCC2)c(Cl)cn1 < 8.00
Cn1nccc1Nc1cc(-c2cc3n(c2)C[C@@H](F)Cn2c-3nnc2C2(C(F)(F)F)CCC2)c(Cl)cn1 ≥ 8.30
Cn1nccc1Nc1cc(-c2cc3n(c2)C[C@H](CF)n2c-3nnc2C2(C(C)(F)F)CCC2)c(Cl)cn1 8.00 to 8.30
C[C@H]1Cn2c(nnc2C2(C(F)(F)F)CCC2)-c2cc(-c3cc(Nc4ccnn4C)ncc3Cl)cn21 ≥ 8.30

Now for another entry.
INPUT: Fill in the recorded pIC50 for this compound, with UniProt:P28482 as test system: Cn1nccc1Nc1cc(-c2cc3n(c2)C[C@H](F)Cn2c-3nnc2C2(C(F)(F)F)CCC2)c(F)cn1
OUTPUT: ≥ 8.30

====

- testedTarget: MAPK1(ERK2) enzyme (Homo sapiens, UniProt P28482)
In this section we review reported IC50 values for a set of molecules.

Sample records with IC50:
molecule	IC50
Cn1nccc1Nc1cc(-c2cc3n(c2)CCCn2c-3nnc2N2CCCc3ccccc32)c(Cl)cn1	5 to 10 nM
Cn1nccc1Nc1cc(-c2cc3n(c2)CC2(CC2)Cn2c-3nnc2C2(C(F)F)CCC2)c(Cl)cn1	≤ 5 nM
Cc1cnc(Nc2ccnn2C)cc1-c1cc2n(c1)CC(C)Cn1c-2nnc1C(F)(F)C(F)F (stereo not shown)	≤ 5 nM

INPUT: Tell me reported IC50 for Cc1cnc(Nc2ccnn2C)nc1-c1cc2n(c1)[C@@H](C)Cn1c-2nnc1C1(C(F)(F)F)CCC1 , tested with MAPK1(ERK2) enzyme (Homo sapiens, UniProt P28482).
OUTPUT: ≤ 5 nM

INPUT: Query IC50 on MAPK1(ERK2) enzyme (Homo sapiens, UniProt P28482) for Cc1cnc(Nc2ccnn2C)cc1-c1cc2n(c1)C[C@H](F)Cn1c-2nnc1C(F)(F)C(F)(F)F
OUTPUT: ≤ 5 nM

INPUT: API: value(readout=IC50, system=MAPK1(ERK2) enzyme (Homo sapiens, UniProt P28482)) for record Cc1cnc(Nc2ccnn2C)cc1-c1cc2n(c1)CC1(CC1)Cn1c-2nnc1C(F)(F)C(F)F
OUTPUT: ≤ 5 nM

INPUT: Record Cn1nccc1Nc1nccc(-c2cc3n(c2)C[C@H](CF)n2c-3nnc2C(F)(F)n2cc(Cl)cn2)n1 : what is its IC50 with MAPK1(ERK2) enzyme (Homo sapiens, UniProt P28482)?
OUTPUT: ≤ 5 nM
